Origin of values: patent US20250282799A1

Listing: pIC50 of selected molecules
# Test system: KRAS G12V dependent lung adenocarcinoma cell line, NCI-H441
# protocol-notes: Cellular pERK (Thr202/Tyr204) FRET/HTRF assay
# Type: cell-based
# stated-conditions: Homo sapiens, NCI-H441, cellular pERK (Thr202/Tyr204) HTRF, NCI-H441 cells
pIC50: −log10 of the molar value.

molecule | target-entity | pIC50
[2H]C([2H])(Oc1nc(N2CCOC[C@H]3[C@H](F)[C@H]32)c2cnc(-c3cccc4ccc(Cl)c(C#C)c34)c(F)c2n1)[C@@]12CCCN1C[C@H](F)C2 [Example 318] | KRAS G12V dependent lung adenocarcinoma cell line, NCI-H441 | > 7.30

Task item: So what does the record say about pIC50 for Nc1cc(Cl)c(C(F)(F)F)c(-c2ncc3c(N4CCCC[C@@H]5[C@@H](F)[C@@H]54)nc(OC[C@@]45CCCN4CC(=C(F)F)C5)nc3c2F)c1 [Example 370] ?
Reply: 5.00 to 6.30

Task item: So what does the record say about pIC50 for [2H]C([2H])(Oc1nc(N2CCCC[C@@H]3[C@@H](Cl)[C@@H]32)c2cnc(-c3cc(N)cc4ccc(F)c(C#C)c34)c(F)c2n1)[C@@]12CCCN1C[C@H](F)C2 [Example 341] ?
Reply: 5.00 to 6.30

* * *

# protocol-notes: Pharmacokinetic evaluation, single dosing (oral and intravenous) in rats
# Type: in vivo, male Sprague-Dawley rats
# Design: unit not given here
# stated-conditions: rat, oral, dose 10 mg/kg, plasma
# Description: Pharmacokinetic profile for test compound was measured by single dosing in male Sprague-Dawley rats. […] All the plasma samples were analyzed using a Shimadzu (DGU-405) HPLC with an API 6500+MS/MS system following the manufacturer's instructions. All the analytes were detected with positive-mode electrospray ionization (ES+). […] Based on the time course sampling, an area under the curve (AUC) was calculated for the oral group and intravenous group. […]
Rule: PO (dose 10 mg/kg) (AUC/D) (h*mg/mL) below 100 gives y, anything at or above gives n.

// below: answered molecules
molecule | class-name
[2H]C([2H])(Oc1nc(N2CCCO[C@H]3C(F)[C@H]32)c2cnc(-c3cc(N)cc4ccc(F)c(C#C)c34)c(F)c2n1)[C@@]12CCCN1C[C@H](F)C2 (stereo in doubt) | y
[2H]C([2H])(Oc1nc(N2CCCC[C@H]3[C@H](F)[C@H]32)c2cnc(-c3cc(N)cc4ccc(F)c(C#C)c34)c(F)c2n1)[C@@]12CCCN1C[C@H](F)C2 | n
[2H]C([2H])([2H])Oc1c(F)ccc2cc(N)cc(-c3ncc4c(N5CCCC[C@H]6[C@H](F)[C@H]65)nc(OC([2H])([2H])[C@@]56CCCN5C[C@H](F)C6)nc4c3F)c12 | n

Task item: Dear colleague, could you confirm whether PO (dose 10 mg/kg) (AUC/D) (h*mg/mL) of [2H]C([2H])(Oc1nc(N2CCOC[C@H]3[C@H](F)[C@H]32)c2cnc(-c3cc(N)cc4cc(F)c(F)c(C#C)c34)c(F)c2n1)[C@@]12CCCN1C[C@H](F)C2 falls below 100? Thanks.
Reply: n

Task item: Dear colleague, could you confirm whether PO (dose 10 mg/kg) (AUC/D) (h*mg/mL) of [2H]C([2H])(Oc1nc(N2CCCC[C@H]3[C@H](F)[C@H]32)c2cnc(-c3cc(N)cc4cc(F)c(F)c(C#C)c34)c(F)c2n1)[C@@]12CCCN1C[C@H](F)C2 falls below 100? Thanks.
Reply: y
